- MEASUREMENT_TARGET: T1, Tau peptide A6940 (human, biotin (bound via biotin to a streptavidin biosensor in the Octet assay; position of the biotin not stated))
- T1 construct: Biotinylated in the Octet assay; also called cognate Tau peptide A6940
- T1 peptide: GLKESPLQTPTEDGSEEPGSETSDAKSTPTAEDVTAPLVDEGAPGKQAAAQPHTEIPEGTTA
- TEST_DESCRIPTION: ITC, tau peptide 20 uM titrated with IgG 200 uM, PBS pH 7.4, one set of sites model
Exercise: state measured pKd for each of the binders provided.
Remember, pKd is on a log scale: it is -log10 of the molar concentration.

*Q* Entry under review: CBTAU-28.1 (I50M[VH];Y52W[VH];S103F[VH];S32R[VL];E35K[VL]) (antibody, V domains shown) VH: QVQLQQSGAEVKKPGESLKISCEASGYSFTNYWIGWVRQMPGKGLEWMGMIWPGDSDTRYSPPFQGQVTITADRSITTAYLEWSSLKASDTAMYYCARVGRPFKGGWFDPWGQGTLVTVSS VL: DIQMTQSPDSLAVSLGERATINCESSQTLLYRSNKKNYLAWYQQKPGQPPKLLISWASTPESGVPDRFSGSGSGTSFTLTISSLQAEDVAVYYCQQYYNSPYTFGQGTRLEIK . Reported pKd?
*A* 7.20

*Q* // next record CBTAU-28.1 (I50M[VH];Y52W[VH];S103F[VH];Y31W[VL];N99H[VL]) (antibody, V domains shown) VH: QVQLQQSGAEVKKPGESLKISCEASGYSFTNYWIGWVRQMPGKGLEWMGMIWPGDSDTRYSPPFQGQVTITADRSITTAYLEWSSLKASDTAMYYCARVGRPFKGGWFDPWGQGTLVTVSS VL: DIQMTQSPDSLAVSLGERATINCESSQTLLWSSNEKNYLAWYQQKPGQPPKLLISWASTPESGVPDRFSGSGSGTSFTLTISSLQAEDVAVYYCQQYYHSPYTFGQGTRLEIK
*A* 7.35

*Q* // next record CBTAU-28.1 (I50M[VH];Y52W[VH];S103W[VH];Y31W[VL];N99H[VL]) (antibody, V domains shown) VH: QVQLQQSGAEVKKPGESLKISCEASGYSFTNYWIGWVRQMPGKGLEWMGMIWPGDSDTRYSPPFQGQVTITADRSITTAYLEWSSLKASDTAMYYCARVGRPWKGGWFDPWGQGTLVTVSS VL: DIQMTQSPDSLAVSLGERATINCESSQTLLWSSNEKNYLAWYQQKPGQPPKLLISWASTPESGVPDRFSGSGSGTSFTLTISSLQAEDVAVYYCQQYYHSPYTFGQGTRLEIK
*A* 7.24

*Q* // next record CBTAU-28.1 (I50M[VH];Y52W[VH];S103W[VH];S32R[VL];E35K[VL]) (antibody, V domains shown) VH: QVQLQQSGAEVKKPGESLKISCEASGYSFTNYWIGWVRQMPGKGLEWMGMIWPGDSDTRYSPPFQGQVTITADRSITTAYLEWSSLKASDTAMYYCARVGRPWKGGWFDPWGQGTLVTVSS VL: DIQMTQSPDSLAVSLGERATINCESSQTLLYRSNKKNYLAWYQQKPGQPPKLLISWASTPESGVPDRFSGSGSGTSFTLTISSLQAEDVAVYYCQQYYNSPYTFGQGTRLEIK
*A* 7.17
